target: human MMP14 (Homo sapiens)
pIC50: −log10 of the molar value.
readout-label: pIC50

* CC(C)n1nc(C(F)F)cc1C(=O)Nc1ccc([C@H]2[C@@H](O)CCCc3cncn32)c(-c2ccccc2)c1 | 5.34

----------
test system: panel of cancer cell lines; test: Cell viability (CellTiter-Glo) dose-response across cancer cell line panel; type: cell-based, human; details: Homo sapiens, RT-112, RT-112 cells;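 further: after 72 h compound incubation with CellTiter-Glo ATP readout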
readout-label: EC50 (µM)

- COCc1ccccc1NCc1ccc([C@@H]2[C@H](O)CCCc3cncn32)c(-c2ccccc2Cl)c1 [CSN5i-2e]: 11.2

----------
tested on: panel of cancer cell lines; assay: Cell viability (CellTiter-Glo) dose-response across cancer cell line panel; format: cell-based, human; conditions: Homo sapiens, NCI-H1869;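 further: after 72 h compound incubation with CellTiter-Glo ATP readout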
pEC50: −log10 of the molar value.
readout-label: pEC50

- CC(C)C[C@H](NC(=O)[C@H](Cc1ccccc1)NC(=O)c1cnccn1)B(O)O: 8.47

----------
tested on: panel of cancer cell lines; assay: Cell viability (CellTiter-Glo) dose-response across cancer cell line panel; assay type: cell-based, human; conditions: Homo sapiens, NCI-H3255, NCI-H3255;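 further: after 72 h compound incubation with CellTiter-Glo ATP readout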
pEC50: −log10 of the molar value.
# reported pEC50; entries follow
readout-label: pEC50

* COCc1ccccc1NCc1ccc([C@H]2[C@@H](O)CCCc3cncn32)c(-c2ccccc2Cl)c1 [CSN5i-2] | < 4.52
* CC(C)C[C@H](NC(=O)[C@H](Cc1ccccc1)NC(=O)c1cnccn1)B(O)O [Bortezomib] | 8.06
* NS(=O)(=O)OC[C@@H]1C[C@@H](n2ccc3c(N[C@H]4CCc5ccccc54)ncnc32)C[C@@H]1O [MLN4924] | < 4.52

----------
test system: panel of cancer cell lines; assay: Cell viability (CellTiter-Glo) dose-response across cancer cell line panel; type: cell-based, human; details: Homo sapiens, Panc 02.03, cell line Panc 02.03;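 further: after 72 h compound incubation with CellTiter-Glo ATP readout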
readout-label: EC50 (nM)

- CC(C)C[C@H](NC(=O)[C@H](Cc1ccccc1)NC(=O)c1cnccn1)B(O)O: 11

----------
# reported EC50; entries follow
tested on: panel of cancer cell lines; test: Cell viability (CellTiter-Glo) dose-response across cancer cell line panel; assay type: cell-based, human; settings: Homo sapiens, SNU-398, SNU-398;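 further: after 72 h compound incubation with CellTiter-Glo ATP readout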
readout-label: EC50 (nM)

- NS(=O)(=O)OC[C@@H]1C[C@@H](n2ccc3c(N[C@H]4CCc5ccccc54)ncnc32)C[C@@H]1O: 294
- COCc1ccccc1NCc1ccc([C@H]2[C@@H](O)CCCc3cncn32)c(-c2ccccc2Cl)c1: 277

----------
# reported EC50; entries follow
test system: panel of cancer cell lines; experiment: Cell viability (CellTiter-Glo) dose-response across cancer cell line panel; type: cell-based, human; details: Homo sapiens, NCI-H2170, NCI-H2170;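 further: after 72 h compound incubation with CellTiter-Glo ATP readout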
readout-label: EC50 (µM)

• COCc1ccccc1NCc1ccc([C@H]2[C@@H](O)CCCc3cncn32)c(-c2ccccc2Cl)c1 = 17.5
• NS(=O)(=O)OC[C@@H]1C[C@@H](n2ccc3c(N[C@H]4CCc5ccccc54)ncnc32)C[C@@H]1O = 0.335

----------
# reported pEC50; entries follow
test system: panel of cancer cell lines; test: Cell viability (CellTiter-Glo) dose-response across cancer cell line panel; type: cell-based, human; details: Homo sapiens, HARA;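 further: after 72 h compound incubation with CellTiter-Glo ATP readout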
pEC50: −log10 of the molar value.
readout-label: pEC50

* CC(C)C[C@H](NC(=O)[C@H](Cc1ccccc1)NC(=O)c1cnccn1)B(O)O [Bortezomib] | 7.92
* COCc1ccccc1NCc1ccc([C@H]2[C@@H](O)CCCc3cncn32)c(-c2ccccc2Cl)c1 [CSN5i-2] | 5.04
* NS(=O)(=O)OC[C@@H]1C[C@@H](n2ccc3c(N[C@H]4CCc5ccccc54)ncnc32)C[C@@H]1O [MLN4924] | 6.19

----------
system: panel of cancer cell lines; assay: Cell viability (CellTiter-Glo) dose-response across cancer cell line panel; format: cell-based, human; settings: Homo sapiens, NCI-H1792, cell line NCI-H1792;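 further: after 72 h compound incubation with CellTiter-Glo ATP readout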
pEC50: −log10 of the molar value.
readout-label: pEC50

• CC(C)C[C@H](NC(=O)[C@H](Cc1ccccc1)NC(=O)c1cnccn1)B(O)O = 7.29

----------
biological target: human MMP8 (Homo sapiens)
Sequence (P22894 100-262): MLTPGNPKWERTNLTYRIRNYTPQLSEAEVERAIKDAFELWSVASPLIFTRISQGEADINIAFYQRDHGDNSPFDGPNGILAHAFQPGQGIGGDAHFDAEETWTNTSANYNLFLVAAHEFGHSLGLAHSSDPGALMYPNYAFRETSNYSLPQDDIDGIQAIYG
pIC50: −log10 of the molar value.
# reported pIC50; entries follow
readout-label: pIC50

* CC(C)n1nc(C(F)F)cc1C(=O)Nc1ccc([C@H]2[C@@H](O)CCCc3cncn32)c(-c2ccccc2)c1 [CSN5i-3] | 4.85
* COCc1ccccc1NCc1ccc([C@@H]2[C@H](O)CCCc3cncn32)c(-c2ccccc2Cl)c1 [CSN5i-2e] | 4.32

----------
tested on: panel of cancer cell lines; assay: Cell viability (CellTiter-Glo) dose-response across cancer cell line panel; assay type: cell-based, human; details: Homo sapiens, HCC1806, HCC1806 cells;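 further: after 72 h compound incubation with CellTiter-Glo ATP readout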
pEC50: −log10 of the molar value.
readout-label: pEC50

* COCc1ccccc1NCc1ccc([C@@H]2[C@H](O)CCCc3cncn32)c(-c2ccccc2Cl)c1 | 4.64

----------
system: panel of cancer cell lines; test: Cell viability (CellTiter-Glo) dose-response across cancer cell line panel; type: cell-based, human; settings: Homo sapiens, VMRC-RCW;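 further: after 72 h compound incubation with CellTiter-Glo ATP readout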
readout-label: EC50 (nM)

- CC(C)C[C@H](NC(=O)[C@H](Cc1ccccc1)NC(=O)c1cnccn1)B(O)O [Bortezomib]: 5.3
- COCc1ccccc1NCc1ccc([C@H]2[C@@H](O)CCCc3cncn32)c(-c2ccccc2Cl)c1 [CSN5i-2]: 2190
- NS(=O)(=O)OC[C@@H]1C[C@@H](n2ccc3c(N[C@H]4CCc5ccccc54)ncnc32)C[C@@H]1O [MLN4924]: 1230

----------
Tested on: panel of cancer cell lines
Experiment: Cell viability (CellTiter-Glo) dose-response across cancer cell line panel;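 further: after 72 h compound incubation with CellTiter-Glo ATP readout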
Type: cell-based, human
Details: Homo sapiens, TANOUE cells
Procedure: Next, we explored the effect of CSN5 inhibition on the viability of cancer cells. […] A standardized CellTiter-Glo Assay (Promega #G7570) based on the quantification of ATP was applied according to the manufacturer's protocol to measure the amount of viable cells in culture. […] EC50 values were calculated from the plot of percentage of inhibition versus inhibitor concentration using the nonlinear regression analysis software Origin 7.5SR6 (OriginLab Corp.).
readout-label: EC50 (µM)

* COCc1ccccc1NCc1ccc([C@@H]2[C@H](O)CCCc3cncn32)c(-c2ccccc2Cl)c1 | 6.4

----------
tested on: panel of cancer cell lines; test: Cell viability (CellTiter-Glo) dose-response across cancer cell line panel; type: cell-based, human; details: Homo sapiens, UACC-257, UACC-257 cells;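 further: after 72 h compound incubation with CellTiter-Glo ATP readout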
readout-label: EC50 (µM)

- COCc1ccccc1NCc1ccc([C@@H]2[C@H](O)CCCc3cncn32)c(-c2ccccc2Cl)c1 [CSN5i-2e]: 11.2

----------
tested on: panel of cancer cell lines; assay: Cell viability (CellTiter-Glo) dose-response across cancer cell line panel; assay type: cell-based, human; conditions: Homo sapiens, SW1271, cell line SW 1271;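 further: after 72 h compound incubation with CellTiter-Glo ATP readout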
pEC50: −log10 of the molar value.
readout-label: pEC50

- CC(C)C[C@H](NC(=O)[C@H](Cc1ccccc1)NC(=O)c1cnccn1)B(O)O: 7.67

----------
System: panel of cancer cell lines
Assay: Cell viability (CellTiter-Glo) dose-response across cancer cell line panel;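 further: after 72 h compound incubation with CellTiter-Glo ATP readout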
Type: cell-based, human
Conditions: Homo sapiens, WM 266-4, WM-266-4
Method: Next, we explored the effect of CSN5 inhibition on the viability of cancer cells. […] A standardized CellTiter-Glo Assay (Promega #G7570) based on the quantification of ATP was applied according to the manufacturer's protocol to measure the amount of viable cells in culture. […] EC50 values were calculated from the plot of percentage of inhibition versus inhibitor concentration using the nonlinear regression analysis software Origin 7.5SR6 (OriginLab Corp.).
readout-label: EC50

- CC(C)C[C@H](NC(=O)[C@H](Cc1ccccc1)NC(=O)c1cnccn1)B(O)O: 24.4 nM
- COCc1ccccc1NCc1ccc([C@H]2[C@@H](O)CCCc3cncn32)c(-c2ccccc2Cl)c1: 1440 nM
- NS(=O)(=O)OC[C@@H]1C[C@@H](n2ccc3c(N[C@H]4CCc5ccccc54)ncnc32)C[C@@H]1O: 465 nM

----------
system: panel of cancer cell lines; assay: Cell viability (CellTiter-Glo) dose-response across cancer cell line panel; type: cell-based, human; settings: Homo sapiens, SK-N-SH;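 further: after 72 h compound incubation with CellTiter-Glo ATP readout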
# reported EC50; entries follow
readout-label: EC50

- COCc1ccccc1NCc1ccc([C@H]2[C@@H](O)CCCc3cncn32)c(-c2ccccc2Cl)c1: 2610 nM
- NS(=O)(=O)OC[C@@H]1C[C@@H](n2ccc3c(N[C@H]4CCc5ccccc54)ncnc32)C[C@@H]1O: 1140 nM
- CC(C)C[C@H](NC(=O)[C@H](Cc1ccccc1)NC(=O)c1cnccn1)B(O)O: 7.2 nM

----------
system: panel of cancer cell lines; test: Cell viability (CellTiter-Glo) dose-response across cancer cell line panel; format: cell-based, human; settings: Homo sapiens, QGP-1, QGP-1 cells;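 further: after 72 h compound incubation with CellTiter-Glo ATP readout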
readout-label: EC50 (µM)

* COCc1ccccc1NCc1ccc([C@@H]2[C@H](O)CCCc3cncn32)c(-c2ccccc2Cl)c1 | 11.8

----------
tested on: panel of cancer cell lines; experiment: Cell viability (CellTiter-Glo) dose-response across cancer cell line panel; format: cell-based, human; conditions: Homo sapiens, UCH1, UCH-1 cells;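 further: after 72 h compound incubation with CellTiter-Glo ATP readout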
readout-label: EC50 (µM)

- COCc1ccccc1NCc1ccc([C@@H]2[C@H](O)CCCc3cncn32)c(-c2ccccc2Cl)c1: 14.7
